Values were extracted from PubChem BioAssay AID1963425.

tested on: 323965-272-R-J2-PDC complex spheroid growth, % test/control; assay: Anticancer human tumor 323965-272-R-J2-PDC patient-derived pancreatic carcinoma cell line growth inhibition [Asc]; conditions: second compound 1 µM; first compound 0.0316 µM; active compounds read low;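 also: compound exposure lasted 7 days starting three days after spheroid seeding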
Could you mark each record met if its viability, T/C falls strictly under 60%, and not met if it equals or exceeds it?

Molecule	Class name
C=C(F)C(=O)N1CCN(c2nc(OCC3CCCN3C)nc3c2CCN(c2cccc4cccc(Cl)c24)C3)CC1CC#N (stereo unspecified) + CNC(C)C(=O)NC1CN(S(=O)(=O)c2cccc(S(=O)(=O)N3CCC4CCC(C(=O)NC(c5ccccc5)c5ccccc5)N4C(=O)C(NC(=O)C(C)NC)C3)c2)CCC2CCC(C(=O)NC(c3ccccc3)c3ccccc3)N2C1=O	met
O=C(c1cc(Cc2n[nH]c(=O)c3ccccc23)ccc1F)N1CCN(C(=O)C2CC2)CC1 + CNC(C)C(=O)NC1CN(S(=O)(=O)c2cccc(S(=O)(=O)N3CCC4CCC(C(=O)NC(c5ccccc5)c5ccccc5)N4C(=O)C(NC(=O)C(C)NC)C3)c2)CCC2CCC(C(=O)NC(c3ccccc3)c3ccccc3)N2C1=O	not met
NC1CCC(NC2CC2c2ccccc2)CC1 (stereo unspecified) + CNC(C)C(=O)NC1CN(S(=O)(=O)c2cccc(S(=O)(=O)N3CCC4CCC(C(=O)NC(c5ccccc5)c5ccccc5)N4C(=O)C(NC(=O)C(C)NC)C3)c2)CCC2CCC(C(=O)NC(c3ccccc3)c3ccccc3)N2C1=O	not met
C=C(F)C(=O)N1CCN(c2nc(OCC3CCCN3C)nc3c2CCN(c2cccc4cccc(Cl)c24)C3)CC1CC#N (stereo unspecified) + Cc1c(S(C)(=O)=O)c(-c2cc(F)cc(N3CCN(c4ccc(NS(=O)(=O)c5ccc(NC(CCN6CCC(C(=O)OCCCP(=O)(O)O)CC6)CSc6ccccc6)c(S(=O)(=O)C(F)(F)F)c5)cc4)CC3)c2)c(-c2ccc(Cl)cc2)n1C(C)C	met

Okay, next one:
Threshold test, viability, T/C < 60%: COc1c(OCCCN2CCOCC2)ccc2c3n(c(=NC(=O)c4cnc(N)nc4)nc12)CCN3 + Cc1c(S(C)(=O)=O)c(-c2cc(F)cc(N3CCN(c4ccc(NS(=O)(=O)c5ccc(NC(CCN6CCC(C(=O)OCCCP(=O)(O)O)CC6)CSc6ccccc6)c(S(=O)(=O)C(F)(F)F)c5)cc4)CC3)c2)c(-c2ccc(Cl)cc2)n1C(C)C not met
